measured-target: PPP1R15A-PP1 complex (Homo sapiens, UniProt O75807)
Construct: the cDNAs encoding amino acids 325-636 of PPP1R15A; made in house; host or cells: R15A fragment: E. coli BL21-Gold; BAP-PP1γ: Sf9 insect cells (baculovirus)
Sequence (O75807 325-636): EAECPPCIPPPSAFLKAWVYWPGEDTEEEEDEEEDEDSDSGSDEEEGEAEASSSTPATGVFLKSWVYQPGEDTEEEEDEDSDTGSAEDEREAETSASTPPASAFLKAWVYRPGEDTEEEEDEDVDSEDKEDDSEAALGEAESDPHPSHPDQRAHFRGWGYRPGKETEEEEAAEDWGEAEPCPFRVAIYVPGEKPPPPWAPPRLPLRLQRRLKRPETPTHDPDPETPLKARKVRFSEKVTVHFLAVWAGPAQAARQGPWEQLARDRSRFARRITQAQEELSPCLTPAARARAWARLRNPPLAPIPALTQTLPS
Sequence (P36873 whole entry partner, the tested form may be a part): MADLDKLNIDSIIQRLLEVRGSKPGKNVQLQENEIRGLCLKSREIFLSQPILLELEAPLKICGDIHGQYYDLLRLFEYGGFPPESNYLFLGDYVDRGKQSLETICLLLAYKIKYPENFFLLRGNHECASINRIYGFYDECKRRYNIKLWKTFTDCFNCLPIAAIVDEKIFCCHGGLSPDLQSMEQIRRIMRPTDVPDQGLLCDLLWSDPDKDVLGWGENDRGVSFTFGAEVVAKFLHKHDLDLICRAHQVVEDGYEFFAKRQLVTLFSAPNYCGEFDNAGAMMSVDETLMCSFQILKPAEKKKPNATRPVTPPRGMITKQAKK
assay-details: SPR steady-state binding to R15A-PP1c holophosphatase on streptavidin chip
condition-set: steady-state affinity
pKd: −log10 of the molar value.
The compounds listed here are annotated with their pKd.
value-type: pKd

compound: N=C(N)N/N=C/c1cc(Cl)c(Cl)c(Cl)c1
relation-sign: =
obs-value: 5.41

compound: N=C(N)N/N=C/c1ccc(F)cc1Cl
relation-sign: =
obs-value: 5.30

compound: O=C(/C=C/c1ccccc1)NC(NC(=S)Nc1cccc2cccnc12)C(Cl)(Cl)Cl (stereo not drawn)
relation-sign: <
obs-value: 4.70

* * *

measured-target: PPP1R15A-PP1 complex (Homo sapiens)
Construct: the cDNAs encoding amino acids 325-636 of PPP1R15A; made in house; host or cells: R15A fragment: E. coli BL21-Gold; BAP-PP1γ: Sf9 insect cells (baculovirus)
assay-details: SPR steady-state binding to R15A-PP1c holophosphatase on streptavidin chip
condition-set: steady-state affinity, listed as GBZ
pKd: −log10 of the molar value.
value-type: pKd

compound: N=C(N)N/N=C/c1c(Cl)cccc1Cl [Guanabenz, reference compound]
value-type: pKd
obs-value: 6.91

* * *

measured-target: PP1c (Homo sapiens)
value-type: Kd

compound: O=C(/C=C/c1ccccc1)NC(NC(=S)Nc1cccc2cccnc12)C(Cl)(Cl)Cl (stereo not shown)
measured-target: PP1c (Homo sapiens)
value-type: Kd
obs-value: > 20 µM

* * *

The compounds listed here are annotated with their pKd.
measured-target: PPP1R15B-PP1 complex (Homo sapiens, UniProt Q5SWA1)
Construct: 340-698 of PPP1R15B were His-tagged and cloned into pMAL-c5x; BAP-PP1γ: Sf9 insect cells (baculovirus)
Sequence (Q5SWA1 340-698, one chain of several): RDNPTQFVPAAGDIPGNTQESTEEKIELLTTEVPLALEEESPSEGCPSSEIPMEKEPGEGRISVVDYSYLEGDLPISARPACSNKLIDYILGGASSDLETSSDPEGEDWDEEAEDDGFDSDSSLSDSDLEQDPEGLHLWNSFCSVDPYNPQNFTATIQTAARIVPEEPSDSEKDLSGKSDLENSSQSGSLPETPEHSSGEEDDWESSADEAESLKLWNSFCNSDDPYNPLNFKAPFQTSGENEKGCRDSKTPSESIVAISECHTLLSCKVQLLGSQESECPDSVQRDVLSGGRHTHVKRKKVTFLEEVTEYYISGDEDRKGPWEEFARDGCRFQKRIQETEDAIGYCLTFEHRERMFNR
assay-details: SPR steady-state binding to R15B-PP1c holophosphatase on streptavidin chip
condition-set: SPR, steady-state affinity
pKd: −log10 of the molar value.

compound: O=C(/C=C/c1ccccc1)NC(NC(=S)Nc1cccc2cccnc12)C(Cl)(Cl)Cl (stereo not drawn) [Salubrinal]
relation-sign: <
pKd: 4.70
--
compound: N=C(N)N/N=C/c1ccc(F)cc1Cl [Example 2]
relation-sign: =
pKd: 6.84
--
compound: [H]/N=C(\N)NN=Cc1cccc(Cl)c1Cl [Example 1]
relation-sign: =
pKd: 7.48
